Recorded values, source PubChem BioAssay AID1656.

- method: inhibitors of hepatocyte lipid droplet formation, primary screen, imaging, high-throughput imaging, BODIPY stain (AID 1656)
- details: AML12 mouse hepatocytes, oleate lipid droplets, at 6.5 µM; stronger effect = higher value
Among all 240,000 compounds or so, about 950 (0.4%) were called active. What follows is part of a selection rich in actives, with near analogues and random picks from the rest.
reported-endpoint: inhibition (%)
Answers are plain numbers, in %.

Some entries whose results are on file:
> print(dat)
                                   compound  reported.endpoint  unit.of.measure  endpoint.value
1      Cc1ccc(-c2csc(NC(=O)Cc3cccs3)n2)cc1C         inhibition                %            12.4
2  CCOC(=O)C1=C(C)OC(N)=C(C#N)C1c1cncc(-c2ccc(F)cc2)c1 (centres undefined)         inhibition                %            -2.2
3    COc1ccc(-c2csc(NC(=O)CCCc3cccs3)n2)cc1         inhibition                %            -3.2

Input: Supply reported inhibition belonging to this compound: CN(CC1CCCN(CCc2cccc(C(F)(F)F)c2)C1)C(=O)c1ccc2nc[nH]c2c1 (centres undefined)
Output: -11.4

###

- method: inhibitors of hepatocyte lipid droplet formation, primary screen, imaging, high-throughput imaging, BODIPY stain (AID 1656)
- details: AML12 mouse hepatocytes, oleate lipid droplets, at 6.5 µM; stronger effect = higher value
The whole screen tested about 240,000 compounds, of which about 950 (0.4%) were called active. Shown is part of a subset that was picked to be rich in actives.
reported-endpoint: inhibition (%)
Give bare numbers, in %.

> print(dat)
                                   compound  endpoint.value
1  CCC(=O)N1CCN(c2ccccc2NC(=O)COc2cccc(C)c2C)CC1             -15
2  Cc1ccc(-n2nc3c(=O)n(C(C)C(=O)NCc4ccc5c(c4)OCO5)nc(C)c3c2C)cc1 (centres undefined)            15.4
3  COc1cc(/C=C/C(=O)N2CCc3ccccc3C2)cc(OC)c1OC               0

# context switch: different compound, same inhibition
Input: Supply reported inhibition belonging to this compound: CC(NC(=O)CNC(=O)Cc1cccc2ccccc12)c1ccc(S(N)(=O)=O)cc1 (centres undefined)
Output: 13.3

###

- method: inhibitors of hepatocyte lipid droplet formation, primary screen, imaging, high-throughput imaging, BODIPY stain (AID 1656);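 on cell count: cells counted across two imaged fields per well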
- details: AML12 mouse hepatocytes, oleate lipid droplets, at 6.5 µM; measured here: cell count, cytotoxicity flag
Screen size: about 240,000 compounds; about 950 (0.4%) were called active. The sample holds actives, similar compounds and a random draw of the others, so the mix is not that of the screen.
Exercise: for every item that follows, state its recorded cell count.
Numbers only, in cells.

Some entries whose results are on file:
> print(dat)
                                   compound  reported.endpoint  endpoint.value
1  O=C(C1CCCN(S(=O)(=O)c2ccc([N+](=O)[O-])cc2)C1)N1CCCCC1 (stereo not drawn)         cell count             814
2    O=C(CN1CCc2cc3c(cc2C1)OCCCO3)Nc1ccccc1         cell count             784

Input: Supply reported cell count belonging to this compound: CCCN1CCn2c3c(c4cc(Br)ccc42)CCCC31 (stereo not drawn)
Output: 795

###

- method: inhibitors of hepatocyte lipid droplet formation, primary screen, imaging, high-throughput imaging, BODIPY stain (AID 1656)
- details: AML12 mouse hepatocytes, oleate lipid droplets, at 6.5 µM; stronger effect = higher value
About 950 (0.4%) of roughly 240,000 compounds were called active. This excerpt belongs to a sample that is enriched for actives.
Exercise: for every item that follows, state its recorded inhibition.
One number for each entry, in %.

Some entries whose results are on file:
> print(dat)
                                    compound  endpoint.value
 1  COc1ccc(CCNC(=O)CCCCCNC(=O)N2CCn3c2nc2ccccc23)cc1OC             0.7
 2  Cc1ccc(NC(=O)c2cc(-c3ccccc3O)n[nH]2)cc1C            31.5
 3  COc1cc2ccccc2cc1C(=O)Nc1ccc(N2CCOCC2)cc1            -4.2
 4  COc1ccc(C(=O)N2CCCCC2C(=O)Nc2ccc(-n3nc(C)cc3C)cc2)o1 (stereo unspecified)           -12.1
 5  CN(C)c1ccc(Nc2c3c4c(cccc4n(C)c2=O)C(=O)c2ccccc2-3)cc1            75.9
 6  CNC[C@H](CC1CCCCC1)NC[C@H](NCCC1CCCC1)[C@H](C)O             1.2
 7  CC(=O)Nc1cccc(Nc2nc(-c3cccs3)nc3ccccc23)c1             2.7
 8  COc1ccc(C(CNC(=O)COc2ccccc2OC)N2CCCCC2)cc1 (stereo unspecified)             -15
 9  CCC1=Nc2cc(C(=O)NCCN3CCCC3)ccc2Sc2ccc(C)cc21             4.6
10  CCOc1ccc(CCNC(=O)C2=C(C)C(=O)OC23CCC(C)CC3)cc1OCC (stereo unspecified)            17.6

Please give inhibition for each item listed below.
1. CC1CCN(CCCNC(=O)CN2C(=O)CSc3ccc(S(=O)(=O)N4CCCCC4)cc32)CC1
2. Cc1ccc2sc(N(CCN(C)C)C(=O)/C=C/c3cccs3)nc2c1C
3. CCOc1ccccc1NC(=S)N1CCN(c2cccc(C)c2C)CC1
4. Cc1ccc(CNC(=O)CCS(=O)(=O)c2ccc3c(c2)CC(C)N3C(=O)C2CC2)o1 (stereo unspecified)
5. CCOc1cc(NC(=O)Nc2ccccc2)c(OCC)cc1NC(=O)CC

Output:
1. 8
2. 4.4
3. -21
4. -2.5
5. 4.2

Please give inhibition for each item listed below.
1. CCc1cccc(NC(=O)CCCN2C(=O)C(c3ccccc3)Oc3cccnc32)c1 (stereo unspecified)
2. COc1cccc(CNC(=O)Cn2c(=O)oc3cc(S(=O)(=O)N4CCCCC4)ccc32)c1
3. O=C(c1ccc(OC2CCN(C/C=C/c3ccc(F)cc3)CC2)cc1)N1CCCCC1
4. Cc1ccc(NC(=O)CN2CCc3ccccc3C2)cc1
5. O=C1/C(=C/c2ccc(F)cc2)SC(=S)N1CCCC(=O)N1CCCCC1CCO (stereo unspecified)

Output:
-3.4
25.1
2
7.1
-7.9

###

- method: inhibitors of hepatocyte lipid droplet formation, primary screen, imaging, high-throughput imaging, BODIPY stain (AID 1656)
- details: AML12 mouse hepatocytes, oleate lipid droplets, at 6.5 µM
Among all 240,000 compounds or so, about 950 (0.4%) were called active.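 The calls were made as follows: active = lipid droplet intensity inhibited by at least 50%, with more than 500 cells counted; inconclusive = wells with under 300 cells, treated as cytotoxic; inactive = the rest.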 The sample holds actives, similar compounds and a random draw of the others, so the mix is not that of the screen.
Choose one outcome from this list and give only that: yes (1) = active, no (0) = inactive

Would you please look over these solved cases?
> print(dat)
                                   molecule   label
1  CCCCN(CCCC)CCCNC(=O)CN1C(=O)COc2ccc(S(=O)(=O)N3CCC(C)CC3)cc21  no (0)
2    COc1ccc(/C=N/N=C2/C(=O)Nc3ccccc32)cc1O  no (0)
3  O=C(/C=C/c1ccc([N+](=O)[O-])o1)NNC(=O)c1ccc(F)cc1  no (0)

Input: Hi, sorry to bother you, what did the test record for Cc1cc(NC(=O)CSc2nc(C(C)C)nc3sc4c(c23)CCC(C)C4)no1 (stereo not given) ?
Output: yes (1)

Input: Hi, sorry to bother you, what did the test record for Cc1cccnc1CC(C)NC(=O)c1cc(COc2cncc(Cl)c2)on1 (stereo not given) ?
Output: no (0)

Input: Hi, sorry to bother you, what did the test record for O=C(N/C(=C\c1ccc([N+](=O)[O-])cc1)C(=O)N1CCOCC1)c1cccc(Br)c1 ?
Output: no (0)

Input: Hi, sorry to bother you, what did the test record for Cc1nc(SCC(=O)Nc2cc(C)on2)c2c3c(sc2n1)CCCC3 ?
Output: no (0)

Input: Hi, sorry to bother you, what did the test record for COc1ccc(/C=C2\SC(=S)N(CCCC(=O)NC3CCCC3)C2=O)cc1OC ?
Output: no (0)

Input: Hi, sorry to bother you, what did the test record for CN1CCN(CCNC(=O)Nc2ccccc2[N+](=O)[O-])CC1 ?
Output: no (0)

Input: Hi, sorry to bother you, what did the test record for CC(C)c1ccc(NC2CCCN(C(=O)c3ccncc3)C2)cc1 (stereo not given) ?
Output: no (0)

###

Exercise: for every item that follows, state its recorded inhibition.
- method: inhibitors of hepatocyte lipid droplet formation, primary screen, imaging, high-throughput imaging, BODIPY stain (AID 1656)
- details: AML12 mouse hepatocytes, oleate lipid droplets, at 6.5 µM; stronger effect = higher value
Hit rate of the full screen: of about 240,000 compounds, about 950 (0.4%) were called active. This excerpt belongs to a sample that is enriched for actives.
Answers are plain numbers, in %.

Some entries whose results are on file:
> print(dat)
                                   compound  reported.endpoint  endpoint.value
1  Cc1ccc(/C=C2/SC(=S)N(CCC(=O)NCCCN3CCOCC3)C2=O)cc1         inhibition           -18.3
2  COc1ccccc1CCNS(=O)(=O)c1cc2c3c(c1)C(C)C(=O)N3CCC2 (stereo unspecified)         inhibition              -4
3  Cc1ccc(N2C(=O)C(NC(=O)c3c(F)cccc3F)(C(F)(F)F)C3=C2CC(C)(C)CC3=O)cc1 (stereo unspecified)         inhibition            63.8
4  COc1ccc(C(=O)Nc2ccccc2C(=O)NCc2ccco2)cc1         inhibition           -20.2
5  COc1ccc(C)cc1N(C(=O)Cn1nnc(-c2ccc(C)o2)n1)C(C(=O)NC1CCCC1)c1ccncc1 (stereo unspecified)         inhibition           -20.1
6  COc1ccc(/C=C(/CC(=O)Nc2ccc(C)cc2)c2nc3ccccc3s2)cc1         inhibition            -0.1
7  CCCN(CCC)c1ccc(C(O)c2nnc(-c3ccccc3)o2)cc1 (stereo unspecified)         inhibition            69.3
8  Cc1ccc(C)c(S(=O)(=O)N2CCCOC2CNC(=O)C(=O)NC2CCCCC2)c1 (stereo unspecified)         inhibition            -1.2

Please give inhibition for each item listed below.
1. CCOCCCNc1nc(-c2ccccc2)nc2ccccc12
2. COc1ccc(OC)c(CNC(=O)CCc2nc(-c3cccs3)no2)c1
3. Cc1cccc(N2CCN(C(=O)c3cccc(N4C(=O)C5C6C=CC(C6)C5C4=O)c3)CC2)c1C (stereo unspecified)
4. COc1ccc(CCNC(=O)c2ccccc2OCc2ccccc2)cc1
5. COC(=O)c1ccc(COc2ccc(/C=C/C(=O)c3ccc(OC)c(CSCC(=O)O)c3)cc2OC)cc1
6. COc1ccc(/C=C(\NC(=O)c2ccc(OCC(C)C)cc2)C(=O)OCc2ccco2)cc1
7. OC(c1nnc(-c2ccccc2)o1)c1cccs1 (stereo unspecified)

Output:
1.2
-2
-0.4
-18.7
-2
74.3
16.7

Please give inhibition for each item listed below.
1. O=C(CN1CCc2cc3c(cc2C1)OCCCO3)Nc1ccccc1
2. O=C(NC(=S)Nc1ccccc1N1CCCCC1)c1ccc(F)cc1
3. O=C(CN1CCOCC1)Nc1ccccc1
4. CC(C)(C)NS(=O)(=O)c1ccc(NC(=O)C2CCCO2)cc1 (stereo unspecified)
5. COc1cccc(/C=C(/CC(=O)Nc2ccc(N3CCOCC3)cc2)c2nc3ccccc3s2)c1

Output:
1. 77.1
2. 8.8
3. 1.4
4. 2.6
5. 77.8

Input: Supply reported inhibition belonging to this compound: COc1ccc(CCNC(=O)CCc2cn(C)c3ccccc23)c(OC)c1
Output: 15.9
